Test: HepG2 cytotoxicity, primary screen, cytotoxicity control for P. falciparum antimalarial project, cell-based, ATP luminescence (AID 2303);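 note: 0% = DMSO wells and 100% = digitonin-killed cells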
Conditions: HepG2 viability, 24-48 h, at 10 µM, stronger effect = higher value
Would you kindly list inhibition for each of these molecules?
Answers are plain numbers, in %.

Here are 5 molecules together with their reported answers.
molecule: COc1cccc(C=CC(=O)NC2CCC(CN3CCC(c4c[nH]c5ccccc45)CC3)CC2)c1OC (configuration not stated)
inhibition (%): 37
--
molecule: CC(Cc1ccc(C2=CCNCC2)cc1)NCC(O)c1cccc(C(F)(F)F)c1 (configuration not stated)
inhibition (%): 27
--
molecule: O=C(NC1CCC(CN2CCC(c3c[nH]c4ccccc34)CC2)CC1)c1cc(-c2ccccc2)c(C(F)(F)F)s1 (configuration not stated)
inhibition (%): 55
--
molecule: CN(Cc1ccccc1)C1CCN(CCc2c[nH]c3ccc(F)cc23)CC1
inhibition (%): 28
--
molecule: Cc1ccc(CC(C)NCC(O)c2cccc(Cl)c2)cc1 (configuration not stated)
inhibition (%): -4

Hi, could you look up inhibition for each item in my list?
1. O=C(/C=C/c1ccccc1Cl)NC1CCC(CN2[C@@H]3CC[C@H]2CC(c2c[nH]c4ccccc24)C3)CC1 (some centres not stated)
2. COCCNCc1ccc(-c2ccc(CN(C(=O)NC3CCCCC3)C3CCN(Cc4ccccc4)CC3)cc2)cc1
3. Cc1ccc(CC(C)NC[C@H](O)c2cccc(Cl)c2)cc1 (some centres not stated)
4. O=C(/C=C/c1ccc(Cl)c(Cl)c1)N1CCC(CN2CCC(c3c[nH]c4cc(C(F)(F)F)ccc34)CC2)CC1
5. CC[C@H]1CN2CC[C@H]1C[C@@H]2[C@@H](O)c1ccnc2ccccc12
6. COc1ccc(C(=O)[C@H]2C[C@@H]2CN2CC=C(c3c(C)[nH]c4ccccc34)CC2)cc1
7. CC[C@H]1CN2CC[C@H]1C[C@H]2[C@H](OC(=O)c1ccccc1)c1cc(C#N)nc2ccc(OC)cc12

Result block:
1: 56; 2: 29; 3: 15; 4: 6; 5: 10; 6: 16; 7: 19

----------
Would you kindly list glutamate uptake change for each of these compounds?
Test: enhancers of glutamate uptake in motor neurons, MN-1 cell line (AID 1612);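 note: tested at 1 µM final; 0% = mean of DMSO vehicle wells on each plate; positive means more glutamate uptake than control and negative means less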
Details: MN-1 motor neuron cells, stronger effect = higher value
Answers are plain numbers, in %.

Here are 4 compounds together with their reported answers.
compound: O=C1CC2OCC=C3CN4CC[C@]56c7ccccc7N1C5[C@H]2[C@H]3CC46 (some centres undefined)
glutamate uptake change (%): -17.6
--
compound: C=C(C)[C@H]1Cc2c(ccc3c2O[C@@H]2COc4cc(OC)c(OC)cc4[C@@H]2C3=O)O1
glutamate uptake change (%): -44.7
--
compound: O=C1CN=C(c2ccccc2)c2cc(Cl)ccc2N1
glutamate uptake change (%): -20.9
--
compound: CC(N)Cc1ccccc1 (centres undefined)
glutamate uptake change (%): 31.4

Hi, could you look up glutamate uptake change for each item in my list?
1. CC(C)(C)NCC(O)c1ccccc1Cl (centres undefined)
2. COC(=O)C1=CCCN(C)C1
3. CCC1(CCC(C)C)C(=O)NC(=O)NC1=O
4. CCNC(C)Cc1cccc(C(F)(F)F)c1 (centres undefined)
5. C=CCC1(CC(C)C)C(=O)NC(=O)NC1=O

Result block:
1: 2.34; 2: 13.8; 3: -7.2; 4: -14.9; 5: 5.4

Hi, could you look up glutamate uptake change for each item in my list?
1. C=CCC1(C(C)CCC)C(=O)N=C(S)NC1=O (centres undefined)
2. CO[C@@H]1C[C@@H](C[C@H]2CC[C@H](C)[C@H]([C@@H](C)C(=O)O)O2)O[C@]2(O[C@](C)([C@H]3CC[C@@](C)(C4O[C@@H](C5O[C@@](O)(CO)[C@H](C)C[C@@H]5C)C[C@@H]4C)O3)C[C@H]2C)[C@@H]1C (some centres undefined)
3. C#CC1(O)CCC2C3CCC4=CC(=O)CCC4(C)C3CCC21C (centres undefined)
4. C[C@H]1C(=O)O[C@@H]2CCN3CC=C(COC(=O)[C@](C)(O)[C@]1(C)O)[C@H]23
5. O=C1CN=C(c2ccccc2Cl)c2cc([N+](=O)[O-])ccc2N1

Result block:
8.72
-43.9
12.9
4
-25.1

Hi, could you look up glutamate uptake change for each item in my list?
1. NCCc1ccc(O)cc1
2. O=c1c2ccccc2[se]n1-c1ccccc1
3. C[N+](C)(C)CC(=O)[O-]
4. Clc1ccc(CSC(Cn2ccnc2)c2ccc(Cl)cc2Cl)cc1 (centres undefined)

Result block:
1. -2.56
2. 26.2
3. 21.6
4. 6.86

Hi, could you look up glutamate uptake change for each item in my list?
1. C=C[C@H]1CN2CC[C@H]1C[C@@H]2[C@@H](OC(=O)OCC)c1ccnc2ccc(OC)cc12
2. C=C[C@H]1CN2CC[C@H]1C[C@H]2[C@H](O)c1ccnc2ccccc12
3. NC(=O)CN1CCCC1=O
4. CC[n+]1c(-c2ccccc2)c2cc(N)ccc2c2ccc(N)cc21
5. Oc1ccc(Cl)cc1
6. CCCC(C)(COC(N)=O)COC(=O)NC(C)C (centres undefined)
7. CC(C)CC(NC(=O)C(Cc1ccccc1)NC(=O)CNC(=O)CNC(=O)C(N)Cc1ccc(O)cc1)C(=O)O (centres undefined)
8. CC[C@@]1(O)C[C@H](O[C@H]2C[C@H](N(C)C)[C@H](O)[C@H](C)O2)c2c(cc3c(c2O)C(=O)c2c(O)cccc2C3=O)[C@H]1C(=O)OC

Result block:
1. 9.82
2. -2.27
3. -1.66
4. 5.78
5. 4.5
6. 3.53
7. 12.5
8. -25.9

----------
Test: glucagon-like peptide 1 release enhancers, primary assay, NCI-H716 cell line, NPC library (AID 1117341)
Conditions: NCI-H716 cells, at 10 µM, stronger effect = higher value
reported.property: GLP1 secretion stimulation (%)
Answers are plain numbers, in %.

compound: CCN(CC)CCOC(=O)C(O)(c1ccccc1)c1ccccc1
measurement.units: %
value.reported: 1
--
compound: C1CN2CCC1CC2
measurement.units: %
value.reported: 6.5

According to the records, this compound CN1C(=O)NC(=O)C(C)(C2=CCCCC2)C1=O (stereo not drawn) displays GLP1 secretion stimulation of 0.1

----------
Experiment: inhibition of 3D7 malaria parasite growth – strain 3D7 (AID 2306);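 note: 0% = DMSO wells and 100% = chloroquine plus artemisinin control wells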
Conditions: P. falciparum 3D7 erythrocytic growth, LDH absorbance, 72 h; at 2 µM; stronger effect = higher value
Would you kindly list growth inhibition for each of these compounds?
Numbers only, in %.

compound: CCCCCCC(CC)c1cc(O)c2c(c1)OC(C)(C)c1ccncc1-2 (stereo not drawn)
reported.property: growth inhibition
value.reported: 94
//
compound: Cc1ccc(CC(C)NCC(O)c2cccc(C(F)(F)F)c2)cc1F (stereo not drawn)
reported.property: growth inhibition
value.reported: 97
//
compound: O=C(Cc1c(-c2ccccc2)[nH]c2ccccc12)NC1CCC(CN2CCC(c3c[nH]c4ccccc34)CC2)CC1 (stereo not drawn)
reported.property: growth inhibition
value.reported: 103
//
compound: C#CCN1CCC2=C(C1)c1c(O)cc(C(C)C(C)CCc3ccc(F)cc3)cc1OC2(C)C (stereo not drawn)
reported.property: growth inhibition
value.reported: 100
//
compound: CC[C@H]1CN2CC[C@@H]1C[C@H]2[C@H](O)c1cc(-c2c(C)noc2C)nc2ccc(OC)cc12
reported.property: growth inhibition
value.reported: 100
//
compound: CC[C@H]1CN2CC[C@H]1C[C@H]2[C@H](O)c1cc(-c2ccccc2C)nc2ccc(OC)cc12
reported.property: growth inhibition
value.reported: 100
//
compound: Cc1cc(N)nc2cc(CNCCc3ccccc3Br)ccc12
reported.property: growth inhibition
value.reported: 101
//
compound: CCCCCCCSc1ccc(CC(C)NCC(O)c2cccc(Cl)c2)cc1 (stereo not drawn)
reported.property: growth inhibition
value.reported: 100
//
compound: Cc1cccc2[nH]cc(C3CCN(CC4CCC(NC(=O)/C=C/c5ccc(Cl)c(Cl)c5)CC4)CC3)c12 (stereo not drawn)
reported.property: growth inhibition
value.reported: 101
//
compound: Cc1[nH]c2ccccc2c1C1=CCN(CCN2CCOc3c(Br)cccc3C2=O)CC1
reported.property: growth inhibition
value.reported: 97

Hi, could you look up growth inhibition for each item in my list?
1. CC(=O)C1(c2ccccc2)CCN(CCC2(c3ccc(Cl)c(Cl)c3)CN(C(=O)CC(C)C)CCO2)CC1 (stereo not drawn)
2. Cc1[nH]c2ccc(O)cc2c1C1CCN(CC2CCN(C(=O)/C=C/c3ccc(Cl)c(Cl)c3)CC2)CC1
3. COC(=O)c1ccc(CC(C)NCC(O)c2cccc(Oc3cccc(C(F)(F)F)c3)c2)cc1 (stereo not drawn)

Result block:
1. 92
2. 99
3. 91

Hi, could you look up growth inhibition for each item in my list?
1. C[C@@H]1C[C@@H]([C@H](O)CC2CC(=O)NC(=O)C2)C(=O)[C@@H](C)C1
2. COc1ccc(C[C@H]2NC[C@H](O)[C@H]2OC(C)=O)cc1
3. Cc1[nH]c2cc(F)ccc2c1C1=CCN(CCCCC2(C)C(=O)Nc3c(F)cccc32)CC1 (stereo not drawn)
4. CC[C@H]1CN2CC[C@@H]1C[C@H]2[C@H](O)c1ccnc2ccc(OC)cc12
5. CC(C)C[C@H](Nc1ccc(C#N)c2ccccc12)C(=O)N[C@@H]1CCCc2ccccc21

Result block:
1: 96; 2: 100; 3: 96; 4: 100; 5: 99
